Target: T1, rat insulin receptor (INSR) on CHOK1 cells (rat, UniProt P15127 27-1383)
T1 construct: whole, on cells; CHOK1 cells over-expressing rat INSR; also called rat INSR ortholog
Test: binding to CHO cells expressing rat INSR; 1st column headed CHO Rat INSR; quantity and unit not printed [cont'd]
recorded.endpoint: CHO Rat INSR

State the recorded CHO Rat INSR for this entry: RHF.15.05896.068 (Fab, V domains shown, Untagged Fab) VH: EVQLVETGGGVVQPGRSLRLSCAASGFKFSSYAMHWVRQAPGKGLEWVAVISYSGGNKYYADSVKGRFTISRDNSKNTLYLQMNSLRAEDTAVYYCARHEWGFGYDYWGQGTTVTVSS VL: DVVMTQSPLSLPVTLGQPASISCRSSQSLVYGDGNTYLNWFQQRPGQSPRRLIYKVSNRDSGVPDRFSGSGSGTEFTLKISRVEAEDVGVYFCMQGTYWPGTFGGGTKLEIKR
0.533
